Just for reference, PubChem BioAssay (NCI) is where these values come from.

# System: SK-MEL-5 melanoma
# test: NCI tumour cell line growth inhibition, 48 h
measurement_kind: TGI

compound CCOc1ccc(NCC(=O)N2CC(=O)Nc3ccccc32)cc1 , TGI observed: > 100 µM

Consider CSC(=S)N(C)c1nc(=[N+](C)C)ss1 . Its measured TGI is > 100 µM

Note to self: TGI recorded for COc1ccccc1NC(=O)C(C#N)=C(SC)SC was > 100 µM

Entry COc1ccc(Cl)cc1N1C(=O)C(Cl)=C(Nc2cccc(O)c2)C1=O — recorded TGI = 39.8 µM

Per the record, COc1ccc2[nH]c3c(cnn4cnnc34)c2c1 has TGI of > 100 µM

Record N#Cc1c(NC(=O)c2cccs2)[n+]([O-])c2ccccc2[n+]1[O-] . Reported TGI: > 100 µM

* * *

# Tested on: NCI/ADR-RES ovarian
# test: NCI tumour cell line growth inhibition, 48 h
Give measured GI50 for each item. Keep answers brief.

The compound CC(=O)OCC(=O)[C@@]1(O)[C@H](C)C[C@H]2[C@@H]3C=C(C)C4=Cc5c(cnn5-c5ccc(F)cc5)C[C@]4(C)[C@H]3[C@@H](O)C[C@@]21C showed GI50 equal to 1.9 µM

Recorded result, Nc1cc(N)c2nc(-c3ccccc3)c(Nc3ccc(F)cc3)nc2c1 , GI50: 23.8 µM

The recorded GI50 for entry COc1ccc(C2CC(=O)Nc3c2c(C)nn3-c2nc3ccccc3[nH]2)cc1 (stereo not given) equals 5.61 µM

Measured GI50 of COc1nccc(-c2c(-c3ccc(F)cc3)ncn2C2CCC(O)CC2)n1 (stereo not given) : > 100 µM

Short answer for O=C(CNC(=O)c1cccc2ccccc12)Nc1ccccc1Oc1cccc(O)c1 : GI50 was 7.94 µM

* * *

# System: BT-549 breast
# test: NCI tumour cell line growth inhibition, 48 h; in the data active means GI50 below about 0.43 µM; inactive means the rest
I would appreciate it if you answered using one of these outcomes: active, inactive

How was CC(=O)OCC(=O)[C@@]1(O)[C@H](C)C[C@H]2[C@@H]3C=C(C)C4=Cc5c(cnn5-c5ccc(F)cc5)C[C@]4(C)[C@H]3[C@@H](O)C[C@@]21C classified in this test?
inactive

# lookup: test call for N#C/C(=C\c1cn(-c2ccccc2)c2ccccc12)C(=O)O
inactive

Any idea what this test logged for COc1ccc(-c2ccc(/C=N/n3cn[nH]c3=S)o2)c([N+](=O)[O-])c1 ?
inactive

Please let me know the test result on file for S=C(Nc1ccccc1)c1ccccn1 .
inactive

So what was the verdict on OCCNc1nc(NCCO)nc(Nc2ccc(C3=NN(c4cc(Cl)cc(Cl)c4)C(c4ccc(Cl)cc4)C3)cc2)n1 (stereo not drawn) in this test?
inactive

What is the recorded call for this compound in the test? COc1ccc(C2=NNC(c3ccc(-c4ccc(OC)cc4[N+](=O)[O-])o3)C2)cc1 (stereo not drawn)
inactive

Please let me know the test result on file for COc1ccc(C2CC(=O)Nc3c2c(C)nn3-c2nc3ccccc3[nH]2)cc1 (stereo not drawn) .
inactive

Called result for COc1ccc2c(c1)[nH]c(=O)c1c3cccnc3cn21
active

Write down the call the test reported for this compound. Item: FC(F)(F)c1ccc2c(c1)N(CCCN1CCN(C3CC3)CC1)c1ccccc1S2
inactive

State the result this test recorded for COc1cc(C)cc2c1OC(c1ccccc1)CC2=O (stereo not drawn) .
inactive

What call does the record list for CCCCCC(=O)N1c2ccccc2NC2=C(C(=O)CC(c3ccc(OC)c(OC)c3)C2)C1c1ccc(C(F)(F)F)cc1 (stereo not drawn) ?
inactive

So what was the verdict on COc1nccc(-c2c(-c3ccc(F)cc3)ncn2C2CCC(O)CC2)n1 (stereo not drawn) in this test?
inactive

Write down the call the test reported for this compound. Item: COC(=O)Nc1ccc2ccc3c(NC(=O)OC)ccc4ccc1c2c43 (tested in a mixture with another compound)
inactive

* * *

# Tested on: HOP-62 NSCLC
# test: NCI tumour cell line growth inhibition, 48 h; in the data active = GI50 below about 0.43 µM; inactive = the rest
Select the matching outcome among t = active, f = inactive

Tell me the assay call for OCCN(CO)CN(CN(CO)CCO)c1nc(N(CN(CO)CCO)CN(CO)CCO)nc(N(CN(CO)CCO)CN(CO)CCO)n1 please.
f

What call does the record list for O=C(Oc1ccccc1)c1cc(O)c(O)c(O)c1 ?
f

Hey, what did the test say about N#C/C(=C\c1cn(-c2ccccc2)c2ccccc12)C(=O)O ?
f

Just curious, what result did COc1ccc(-c2ccc(/C=N/n3cn[nH]c3=S)o2)c([N+](=O)[O-])c1 get here?
f

How did this test come out for Cc1ccc(NC(=O)c2ccnc(C(F)(F)F)c2)cc1-c1cc(OCCO)nc(N2CCOCC2)c1 ?
f

Which outcome was entered for the molecule Cc1c(C(=O)/C=C/c2ccc(O)cc2)nnn1-c1ccnc2c(C(F)(F)F)cccc12 in this test?
f

Short answer needed: outcome of this test for COC(=O)Nc1ccc2ccc3c(NC(=O)OC)ccc4ccc1c2c43 (tested in a mixture with another compound) ?
f

Returns: the outcome recorded for C=C1C(=O)O[C@H]2[C@H]1CC/C(COC(=O)NCCc1ccc(OC)cc1)=C\CC[C@@]1(C)O[C@@H]21 in this assay.
f

What was the test verdict on O=C(O)C(/C=C/c1ccco1)=N\Nc1nc(-c2ccc(Cl)cc2)cs1 ?
f

How was COc1ccc(C2CC(=O)Nc3c2c(C)nn3-c2nc3ccccc3[nH]2)cc1 (stereo unspecified) classified in this test?
f

Look up the recorded call for CCCOc1ccc(/C=C/c2cc(OC)c(OC)c(OC)c2)cc1 in this test.
t

* * *

# Test system: OVCAR-4 ovarian
# test: NCI tumour cell line growth inhibition, 48 h
measurement_kind: GI50

Summary for this molecule, Cc1ccc(NC(=O)c2ccnc(C(F)(F)F)c2)cc1-c1cc(OCCO)nc(N2CCOCC2)c1 : GI50 is 3.95 µM

The recorded GI50 for Clc1nc(Cl)c2ncn(C/C=C\Cn3cnc4c(Cl)nc(Cl)nc43)c2n1 is 1.79 µM

The value of GI50 measured for the molecule O=C(Nc1ccccc1Cl)c1cnc2ccc(C3CCNCC3)cn12 turned out to be > 75.1 µM

GI50 reading for CC(=O)OCC(=O)[C@@]1(O)[C@H](C)C[C@H]2[C@@H]3C=C(C)C4=Cc5c(cnn5-c5ccc(F)cc5)C[C@]4(C)[C@H]3[C@@H](O)C[C@@]21C : 2.12 µM

Reported GI50 of COc1ccc(-c2ccc(/C=N/n3cn[nH]c3=S)o2)c([N+](=O)[O-])c1 : 82.9 µM

In plain terms, FC(F)(F)c1ccc2c(c1)N(CCCN1CCN(C3CC3)CC1)c1ccccc1S2 has a documented GI50 of 11.1 µM

Lab book: GI50 of Nc1nc(-n2cccn2)nc(-n2cccn2)c1Br noted as > 100 µM

Entry COc1n[n+]([O-])c(C)cc1[N+](=O)[O-] — recorded GI50 = 16.1 µM

GI50 in this record for N#C/C(=C\c1cn(-c2ccccc2)c2ccccc12)C(=O)O : 39.1 µM

GI50 reported for this molecule c1ccc(-c2nc(Nc3ccc(-c4nc5ccccc5[nH]4)cc3)nc(N3CCOCC3)n2)cc1 : 1.68 µM

* * *

# Test system: TK-10 renal
# test: NCI tumour cell line growth inhibition, 48 h
measurement_kind: TGI

For this compound ( Nc1cc(N)c2nc(-c3ccccc3)c(Nc3ccc(F)cc3)nc2c1 ), measured TGI is 35.6 µM

The compound listed as COc1ccc(NC=O)c(C(O)CCNC(C)=O)c1 (stereo unspecified) has a reported TGI of > 100 µM

CC(=O)OC1[C@H]2c3cc4c(cc3CN3CCC(C[C@@H]1OC(C)=O)C23)OCO4 (stereo partly specified) has a reported TGI of > 75 µM

The compound identified as Oc1cn(-c2ccc(Cl)cc2)nc1-c1nnc(Nc2ccccc2)o1 registered its TGI at 38.1 µM

TGI recorded for this compound, CCCCCCCCCC(=O)OCC1(CO)C/C(=C/CC(C(C)C)C(C)C)C(=O)O1 (stereo unspecified) , is > 100 µM

// sample O=C1CCC(c2nc3ccccc3o2)C(=O)N1 (stereo unspecified) , its TGI was > 100 µM

// field: TGI; key: COc1cc(C)cc2c1OC(c1ccccc1)CC2=O (stereo unspecified) ; value = > 100 µM

compound COc1ccc(NC2=C(Sc3nc(C)cc(C)n3)C(=O)N(Cc3ccccc3)C2=O)cc1Cl , TGI observed: > 160 µM

Entry C/C(C=O)=N\Nc1cc(C)c2ccccc2n1 — recorded TGI = 29.5 µM

Lookup result for CN(C)c1cccc2[nH]c(-c3[nH]ncc3Nc3ccnc(N)n3)nc12 ; measured TGI: 1.01 µM

Value of measured TGI for the entry Cc1cccc(C(C)(C)C)c1NC(=O)CC1C(=O)Nc2ccccc2S1=O (stereo unspecified) : > 100 µM

* * *

# System: HL-60(TB) leukemia
# test: NCI tumour cell line growth inhibition, 48 h
measurement_kind: TGI

TGI reported for this compound CN(C)c1ccc(C2CC(=O)CC(c3ccc(N(C)C)cc3)C23C(=O)NC(=O)NC3=O)cc1 (stereo unspecified) : > 25 µM

The value of TGI measured for the compound O=C(Cc1ccccc1)N/N=C(/CCN1CCCC1)CC(c1ccccc1)c1c(O)c2ccccc2oc1=O (stereo unspecified) turned out to be > 100 µM

TGI for Cc1cccc(C(C)(C)C)c1NC(=O)CC1C(=O)Nc2ccccc2S1=O (stereo unspecified) is 43.7 µM

// TGI lookup, compound = COc1ccc(NC(=O)C2=C(SC)C(C#N)C(=O)N=C2N)cc1 (stereo unspecified) , result: > 100 µM

The compound listed as COc1cc(C2c3cccc4cccc(c34)C3CCC(=O)N32)cc(O)c1O (stereo unspecified) shows TGI equal to > 50 µM

TGI for CC1CCCc2c(-c3ccc(Cl)cc3)nc(N)c(C#N)c21 (stereo unspecified) is > 100 µM

Sample Cc1ccccc1C(C#N)/C(=N/NC(=O)c1cc2ccccc2cc1O)C(=O)Nc1cccc(Cl)c1 (stereo unspecified) ; TGI observed: 26.8 µM

TGI recorded for this compound, Cc1ccc(S(=O)(=O)N/N=C2\C(=O)C3CC2C(Cl)C3Cl)cc1 (stereo unspecified) , is > 100 µM

Recorded result, CCC(=O)N(c1ccccc1)C(C)CN1CCC(O)(c2ccccc2)CC1 (stereo unspecified) , TGI: > 100 µM

Record summary for COc1ccc(C2CC(=O)Nc3c2c(C)nn3-c2nc3ccccc3[nH]2)cc1 (stereo unspecified) : reported TGI = 9.83 µM

The compound listed as CCOC(=O)/C(C#N)=C(O)/C(=C/c1ccccc1Cl)NC(=O)c1ccccc1 has a reported TGI of > 100 µM

# compound O=C(CCN(CCO)CCO)Nc1ccc2c(c1)C(=O)c1ccc(NC(=O)CCN(CCO)CCO)cc1C2=O ; its TGI = 45.7 µM

Looking up CC(=O)Nc1c(C)cc(OCC(=O)O)cc1C , I see its TGI listed as > 100 µM

According to the records, this compound CCN(CC)CCCCC1CCN(CC(=O)N2c3ccccc3NC(=O)c3ccccc32)CC1 displays TGI of > 100 µM

Input O=C1C(NCCO)=C(N2CC2)C(=O)C(NCCO)=C1N1CC1 . Output TGI: 57.6 µM

get_value(item= O=C1C(NCCc2cc(Br)c(O)c(Br)c2)=CC(=O)c2ncccc21 , readout=TGI) returns 12.7 µM
